Let's look at some compounds and their measured normalized growth.
- measurement protocol: chemical genetic growth profiling, strain panel (AID 1159580);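 note: tested at 20 µM; growth read once vehicle control cultures reached saturation at 30 °C; 1 = growth at the plate median or of vehicle wells; lower values mean less growth of the strain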
- test context: S. cerevisiae deletion strains, growth OD, locus YKL160W, strain elf1, active compounds read low
Screen size: about 5,500 compounds; about 2,000 (36%) were called active. About 18% were inconclusive and are not listed. This is one part of the list.
# respond with the number and nothing more

normalized growth recorded for this compound, Nc1ccc(S(=O)(=O)NC(=O)c2ccccc2)cc1 , is 1.01

normalized growth recorded for this compound, CC(=O)O[C@H]1CCC2(C)C3=C(CCC2C1(C)C)[C@@]1(C)CC[C@@H](C(C)CCC=C(C)C)[C@]1(C)CC3 (stereo not given in full) , is 1.02

normalized growth recorded for this compound, O=C(NCO)c1cccnc1 , is 1.01

normalized growth recorded for this compound, CC(=O)O[C@@H]1CC2C(C)(C)[C@H](O)C=C[C@]2(C)C2CC[C@]3(C)C(=CC(=O)O[C@H]3c3ccoc3)[C@@]21C (stereo not given in full) , is 0.992

normalized growth recorded for this compound, CCCN(CCC)S(=O)(=O)c1ccc(C(=O)O)cc1 , is 0.971

normalized growth recorded for this compound, CC(C)=CCCC(C)[C@@H]1CC[C@]2(C)C3=C(CC[C@@]12C)C1(C)CC[C@H](O)C(C)(C)C1CC3 (stereo not given in full) , is 1.03

normalized growth recorded for this compound, CC1=CCCC2C1(C)CCC(C)C2(C)CC/C(C)=C/C[n+]1cn(C)c2c(N)ncnc21 (stereo not given) , is 0.929

normalized growth recorded for this compound, CC(=O)O[C@H]1CCC2(C)C3=C(CCC2C1(C)C)[C@]1(C)CCC(C(C)CCC=C(C)C)[C@@]1(C)CC3 (stereo not given in full) , is 1.03

normalized growth recorded for this compound, CN(C)[C@@H]1C(=O)C(C(N)=O)=C(O)[C@@]2(O)C(=O)C3=C(O)c4c(O)ccc(Cl)c4[C@@](C)(O)[C@H]3C[C@@H]12 , is 0.962

normalized growth recorded for this compound, NC(=O)c1cccnc1 , is 0.991

###

- measurement protocol: chemical genetic growth profiling, strain panel (AID 1159580)
- test context: S. cerevisiae deletion strains, growth OD, locus YDL017W, strain CDC7, active compounds read low
Out of some 5,500 compounds screened, about 2,000 (36%) were called active. Inconclusive results (about 18%) are left out. The list shows a part of the results.
measurement kind: normalized growth
# respond with the number and nothing more

> print(dat)
                                    compound   measurement.kind  result
 1  COC(=O)C1=C(Nc2ccccc2NS(=O)(=O)c2ccc(C(F)(F)F)cc2Cl)CSC1  normalized growth   0.973
 2    O=S(=O)(Oc1ccc(-c2csnn2)cc1)c1ccccc1Cl  normalized growth   0.974
 3                 NC(=S)N/N=C1/CCCc2ccccc21  normalized growth   0.921
 4  Cc1nn(-c2cccc(Cl)c2)c2oc(=O)cc(C(F)(F)F)c12  normalized growth   0.968
 5  O=C1c2cccc3c(Sc4ccccc4)ccc(c23)C(=O)N1NCCO  normalized growth   0.929
 6      O=C(Nc1cccc(Cl)c1)O/N=C1\CCCc2occc21  normalized growth   0.949
 7         Cc1ccc2nc(-c3ccc4c(c3)OCCO4)cn2c1  normalized growth   0.985
 8              O=C(NOC(=O)c1ccccc1)c1ccccc1  normalized growth  0.0875
 9  OC(COc1ccc(F)cc1)(c1ccc(Cl)cc1)c1ccc(Cl)cc1  normalized growth   0.988
10  C#CCSC1=NNC(c2ccccn2)S1 (stereo not drawn)  normalized growth   0.947

normalized growth recorded for this compound, Cc1cc(/C(N)=N\OC(=O)C(C)(C)C)cc(/C(N)=N\OC(=O)C(C)(C)C)c1 , is 0.989

normalized growth recorded for this compound, N#CSCC(=O)c1ccccc1 , is 0.092

normalized growth recorded for this compound, CCOC(=O)/C(C#N)=C(\Nc1ccc(C(=O)OCC)cc1)SC , is 0.978

normalized growth recorded for this compound, Cc1ccc(-n2cccc2)c(NS(=O)(=O)c2ccc(-c3ccno3)s2)c1 , is 0.957

###

- measurement protocol: chemical genetic growth profiling, strain panel (AID 1159580);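 note: tested at 20 µM; growth read once vehicle control cultures reached saturation at 30 °C; 1 = growth at the plate median or of vehicle wells; lower values mean less growth of the strain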
- test context: S. cerevisiae deletion strains, growth OD, locus YGL173C, strain kem1, active compounds read low
About 2,000 (36%) of roughly 5,500 compounds were called active. Another 18% or so got no clear call; they are omitted. The list shows a part of the results.
Let's look at some molecules and their measured normalized growth.

Answered examples (5):
> print(dat)
                                   molecule            result
1  CC(CCC(=O)O)[C@H]1CCC2C3C(=O)C[C@@H]4CC(=O)CC[C@]4(C)C3CC(=O)[C@@]21C (some centres not stated)  0.989 (inactive)
2  CN(C)[C@@H]1C(=O)C(C(N)=O)=C(O)[C@@]2(O)C(=O)C3=C(O)c4c(O)ccc(Cl)c4[C@@](C)(O)[C@H]3C[C@@H]12  0.985 (inactive)
3                 CCCc1cc(=O)[nH]c(=S)[nH]1   1.04 (inactive)
4       Oc1c(Cl)cc(Cl)cc1Sc1cc(Cl)cc(Cl)c1O   0.0685 (active)
5  CN(C)[C@@H]1C(=O)C(C(=O)NCN2CCCC2)=C(O)[C@@]2(O)C(=O)C3=C(O)c4c(O)cccc4[C@@](C)(O)[C@H]3C[C@@H]12   1.01 (inactive)

normalized growth recorded for this molecule, C[C@H](CCC(=O)O)[C@H]1CCC2C3C(=O)CC4CC(=O)CC[C@]4(C)C3CC(=O)[C@@]21C (some centres not stated) , is 0.962 (inactive)

normalized growth recorded for this molecule, Cc1cc(=O)[nH]c(=S)[nH]1 , is 0.968 (inactive)

###

- measurement protocol: chemical genetic growth profiling, strain panel (AID 1159580);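 note: tested at 20 µM; growth read once vehicle control cultures reached saturation at 30 °C; 1 = growth at the plate median or of vehicle wells; lower values mean less growth of the strain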
- test context: S. cerevisiae deletion strains, growth OD, locus YNL233W, strain BNI4, active compounds read low
Hit rate of the full screen: of about 5,500 compounds, about 2,000 (36%) were called active. About 18% were inconclusive and are not listed. This is one part of the list.
Let's look at some compounds and their measured normalized growth.
# respond with the number and nothing more

Answered examples (10):
> print(dat)
                                    compound  result
 1  COC(=O)c1c(OC)cc2c(c1C)Oc1c(Cl)c(OC(C)=O)c(Cl)c(C)c1C(=O)O2    1.03
 2  CC(=O)Oc1ccc(C(c2ccc(OC(C)=O)cc2)c2ccccn2)cc1   0.971
 3  COc1c(C)c2c(c(C)c1Cl)Oc1c(Cl)c(OC)c(Cl)c(C)c1C(=O)O2    1.02
 4                        CC(=O)Oc1ccc(O)cc1    0.94
 5  CC12CCC(=O)C=C1CCC1C2[C@@H](O)CC2(C)C1CC[C@]2(O)C(=O)COP(=O)(O)O (stereo partly specified)    1.01
 6                   Cc1cc(=O)[nH]c(=S)[nH]1    1.02
 7  C/C1=C\CC(C)(C)/C=C/CC2(C)OC2CC1 (stereo unspecified)    1.03
 8  CC(=O)Oc1ccc(/C=C/c2cc(OC(C)=O)cc(OC(C)=O)c2)cc1   0.948
 9                 Cc1cc(=O)oc2cc(O)c(O)cc12   0.961
10  CS(=O)(=O)Nc1ccc([N+](=O)[O-])cc1Oc1ccccc1   0.927

Please turn your attention to the following entry.
normalized growth recorded for this compound, COC(=O)c1c(C)c2c(c(C)c1OC)OC(=O)c1c(C)c(Cl)c(OC)c(Cl)c1O2 , is 1.02

###

- measurement protocol: chemical genetic growth profiling, strain panel (AID 1159580);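 note: tested at 20 µM; growth read once vehicle control cultures reached saturation at 30 °C; 1 = growth at the plate median or of vehicle wells; lower values mean less growth of the strain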
- test context: S. cerevisiae deletion strains, growth OD, locus YPL241C, strain CIN2
Hit rate of the full screen: of about 5,500 compounds, about 2,000 (36%) were called active. Not shown: some 18% with an inconclusive outcome. Cut-off read from the data, not from the text of the source: active = normalized growth mostly below about 0.91 (no sharp cut-off); inconclusive = no clear call, values can overlap the other calls; inactive = mostly above about 0.92. Some of the results follow.
Outcomes you can answer with include only these: active, inactive

Look over these answered cases.
molecule	assigned category
CCC(C)C(=O)OC1[C@@H]2CC3=C4CC(=O)O[C@@H](c5ccoc5)[C@]4(C)CCC3[C@@](C)(C2=O)[C@@H](CC(=O)OC)C1(C)C (stereo partly specified)	inactive
CC(C)(C)NCC(O)c1ccc(O)c(CO)c1 (stereo unspecified)	inactive
N#CCCC1(CCC#N)c2ccccc2-c2ccccc21	inactive
COC(=O)c1ccc(S(=O)(=O)N2CCC(C(N)=O)CC2)n1C	inactive
COC(=O)/C(=C1\OC(=O)C(c2ccccc2)=C1O)c1ccccc1	inactive
C=C(C)C1CCC(C)(O)C2CC3OC3(C)C2C1 (stereo unspecified)	inactive
N/C(Cc1cccc2ccccc12)=N/O	active
CCOC(=O)NNc1nncc2ccccc12	inactive
OC[C@H]1O[C@@H](O[C@@H]2[C@@H](CO)O[C@](O)(CO)[C@H]2O)[C@H](O)[C@@H](O)[C@H]1O	inactive
O=C(O)CCCNCc1cccc2ccccc12	inactive

Now look at this entry.
// param item: CCc1cccc(N(C)C(N)=Nc2cccc3ccccc23)c1 ; yields the recorded call
inactive
